Target: T1, HCoV-229E S1 subunit (17–560 aa) (human coronavirus 229E, UniProt P15423 17-560)
T1 chain: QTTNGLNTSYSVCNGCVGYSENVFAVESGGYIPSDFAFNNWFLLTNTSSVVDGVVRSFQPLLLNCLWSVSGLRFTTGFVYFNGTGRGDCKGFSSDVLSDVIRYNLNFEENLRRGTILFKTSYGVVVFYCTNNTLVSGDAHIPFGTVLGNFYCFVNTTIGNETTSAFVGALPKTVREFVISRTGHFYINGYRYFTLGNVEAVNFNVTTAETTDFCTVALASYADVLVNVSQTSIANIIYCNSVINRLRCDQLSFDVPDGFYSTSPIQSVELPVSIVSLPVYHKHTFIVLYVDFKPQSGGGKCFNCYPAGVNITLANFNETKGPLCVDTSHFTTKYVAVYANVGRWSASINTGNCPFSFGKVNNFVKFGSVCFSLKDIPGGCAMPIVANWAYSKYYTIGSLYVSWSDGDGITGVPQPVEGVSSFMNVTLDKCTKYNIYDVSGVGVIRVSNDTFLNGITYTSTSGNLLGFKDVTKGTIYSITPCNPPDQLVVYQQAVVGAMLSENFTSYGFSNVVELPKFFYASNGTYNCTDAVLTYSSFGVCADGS
Assay: SPR
Parameter measured: koff (s⁻¹)
Unit s⁻¹ implied. Number only.

*Q* Reported koff for Fab A01 (Fab, V domains shown) VH: EVQLVESGGGLVQPGGSLRLSCAASGFNISSSYIHWVRQAPGKGLEWVASIYSYYSSTSYADSVKGRFTISADTSKNTAYLQMNSLRAEDTAVYYCARGGYAFYGYGSPHSWYALDYWGQGTLVTVSS VL: DIQMTQSPSSLSASVGDRVTITCRASQSVSSAVAWYQQKPGKAPKLLIYSASSLYSGVPSRFSGSRSGTDFTLTISSLQPEDFATYYCQQWWPGSWGPITFGQGTKVEIK : what is it?
*A* 0.00068

*Q* # input binder: Fab D12 (Fab, V domains shown) VH: EVQLVESGGGLVQPGGSLRLSCAASGFNLSSYSMHWVRQAPGKGLEWVAYISPYYSYTSYADSVKGRFTISADTSKNTAYLQMNSLRAEDTAVYYCARVWYHSYPGWVPWGSWAFDYWGQGTLVTVSS VL: DIQMTQSPSSLSASVGDRVTITCRASQSVSSAVAWYQQKPGKAPKLLIYSASSLYSGVPSRFSGSRSGTDFTLTISSLQPEDFATYYCQQAYYSPITFGQGTKVEIK ; wanted: its koff
*A* 0.00086

*Q* Given the entry Fab D04 (Fab, V domains shown) VH: EVQLVESGGGLVQPGGSLRLSCAASGFNLSSYYIHWVRQAPGKGLEWVASISPYSSSTYYADSVKGRFTISADTSKNTAYLQMNSLRAEDTAVYYCARWYSPSYGWYWPYASGAGGLDYWGQGTLVTVSS VL: DIQMTQSPSSLSASVGDRVTITCRASQSVSSAVAWYQQKPGKAPKLLIYSASSLYSGVPSRFSGSRSGTDFTLTISSLQPEDFATYYCQQSSPHYLITFGQGTKVEIK , report its measured koff.
*A* 0.0012

*Q* Could you tell me which koff is on file for Fab F07 (Fab, V domains shown) VH: EVQLVESGGGLVQPGGSLRLSCAASGFNISYYSIHWVRQAPGKGLEWVASIYPYYGYTSYADSVKGRFTISADTSKNTAYLQMNSLRAEDTAVYYCARSSGYYHYPYSHSGLDYWGQGTLVTVSS VL: DIQMTQSPSSLSASVGDRVTITCRASQSVSSAVAWYQQKPGKAPKLLIYSASSLYSGVPSRFSGSRSGTDFTLTISSLQPEDFATYYCQQSYYWGGPITFGQGTKVEIK ?
*A* 0.00036

*Q* Record request: koff value, item Fab B10 (Fab, V domains shown) VH: EVQLVESGGGLVQPGGSLRLSCAASGFNLSSSSMHWVRQAPGKGLEWVAYIYPSYSSTYYADSVKGRFTISADTSKNTAYLQMNSLRAEDTAVYYCARASGHFWAYGFDYWGQGTLVTVSS VL: DIQMTQSPSSLSASVGDRVTITCRASQSVSSAVAWYQQKPGKAPKLLIYSASSLYSGVPSRFSGSRSGTDFTLTISSLQPEDFATYYCQQYSYSGPFTFGQGTKVEIK
*A* 0.00031

*Q* Please give the measured koff for this binder: Fab C04 (Fab, V domains shown) VH: EVQLVESGGGLVQPGGSLRLSCAASGFNISSSYIHWVRQAPGKGLEWVASIYSSYGYTYYADSVKGRFTISADTSKNTAYLQMNSLRAEDTAVYYCARWWASVGGAGGGLDYWGQGTLVTVSS VL: DIQMTQSPSSLSASVGDRVTITCRASQSVSSAVAWYQQKPGKAPKLLIYSASSLYSGVPSRFSGSRSGTDFTLTISSLQPEDFATYYCQQGYGWLITFGQGTKVEIK
*A* 0.007

*Q* Look up koff: Fab A11 (Fab, V domains shown) VH: EVQLVESGGGLVQPGGSLRLSCAASGFNIYSSYIHWVRQAPGKGLEWVASISSSYGYTYYADSVKGRFTISADTSKNTAYLQMNSLRAEDTAVYYCARGHGWAYVWSSYYPAGAFALDYWGQGTLVTVSS VL: DIQMTQSPSSLSASVGDRVTITCRASQSVSSAVAWYQQKPGKAPKLLIYSASSLYSGVPSRFSGSRSGTDFTLTISSLQPEDFATYYCQQSYALITFGQGTKVEIK
*A* 0.0018

*Q* What value of measured koff is listed for Fab A10 (Fab, V domains shown) VH: EVQLVESGGGLVQPGGSLRLSCAASGFNISSYYMHWVRQAPGKGLEWVAYISPYSGYTYYADSVKGRFTISADTSKNTAYLQMNSLRAEDTAVYYCARAHYPYHGSYWGLDYWGQGTLVTVSS VL: DIQMTQSPSSLSASVGDRVTITCRASQSVSSAVAWYQQKPGKAPKLLIYSASSLYSGVPSRFSGSRSGTDFTLTISSLQPEDFATYYCQQAGYVPITFGQGTKVEIK ?
*A* 0.00083

*Q* May I ask what koff has been recorded for Fab B09 (Fab, V domains shown) VH: EVQLVESGGGLVQPGGSLRLSCAASGFNLSYSSIHWVRQAPGKGLEWVAYIYPYYGSTYYADSVKGRFTISADTSKNTAYLQMNSLRAEDTAVYYCARSWSPSSSYPGYGGLDYWGQGTLVTVSS VL: DIQMTQSPSSLSASVGDRVTITCRASQSVSSAVAWYQQKPGKAPKLLIYSASSLYSGVPSRFSGSRSGTDFTLTISSLQPEDFATYYCQQSWSYYGSLFTFGQGTKVEIK ?
*A* 0.00064
